Value source: the METLIN SMRT retention time set (Domingo-Almenara et al. 2019)

Experiment: gradient 5% acetonitrile 3 min, to 50% in 2 min, to 85% in 15 min, held 3 min, 100 µL/min
Conditions: column: Zorbax Extend-C18 2.1 x 50 mm; eluents: water / acetonitrile, 0.1% formic acid
Property: RP-LC retention time (s)

Known RP-LC retention time results, listed for orientation:
CCCN(C)C(=O)c1c(C)oc2c1CN(C(=O)COC)CC2; 613
CCc1nc2cc(-c3noc(Cc4ccc(OC)cc4)n3)ccc2o1; 1030
COc1ccccc1-c1noc(-c2nn(-c3ccc(F)c(F)c3)ccc2=O)n1; 807
CC(C)(C)C(=O)N1CCC(C(=O)N[C@@H]2CCCC[C@H]2NC(=O)c2ccc(F)cc2)CC1; 698
CCN1c2cc(Cl)ccc2C(=O)NC12CCN(C(=O)NCc1ccccc1)CC2; 757
COCCNC(=O)c1ccc(OC2CCN(CC(c3ccccc3)c3ccccc3)CC2)c(OC)c1; 680

1: Cc1nn(-c2ccccc2)c(C)c1S(=O)(=O)N1CCC(C(=O)NC2CCCCC2)CC1
2: Cc1noc(C)c1Cc1ccc(C(=O)N(C)C2CCc3nnc(C)n3CC2)o1 (centres undefined)
// pick min by RP-LC retention time: 1 , 2 Selection: enter the item's label.
2

P: O=C(NCCc1ccc(N2CCCC2)cc1)C(=O)Nc1ccc(OC(F)(F)F)cc1
Q: O=C(Nc1ccccc1)c1csc(-c2ccc(N3CCCC3)nc2)n1
Parameter check: reported RP-LC retention time is higher for which label, P or Q ? Selection: enter the item's label.
P

a: CCCCOc1ccc(C(=O)N2CCCC2c2nc(-c3ccc(OC)c(OC)c3)no2)cc1 (centres undefined)
b: Cc1ccc(-c2nnc(N3CCC(C(=O)N4CCN(C5CCCCC5)CC4)CC3)o2)cc1
Parameter check: reported RP-LC retention time is higher for which label, a or b ? Selection: enter the item's label.
a

a: CCn1c(C)c(C(=O)CN(CC2CCCO2)C(=O)c2ccc(Cl)cc2)c(C)c1C(=O)OC (centres undefined)
b: Oc1ccc(Nc2ccnc3cc(Cl)ccc23)cc1
Parameter check: reported RP-LC retention time is higher for which label, a or b ? Selection: enter the item's label.
a
(a: 978 s, b: 665 s)
